System: Wnt activity (Sp5-Luc reporter, SW480 colon carcinoma cells)
Test: Sp5-Luc reporter gene screening assay for Wnt activity in SW480 cells
Type: cell-based
Details: Homo sapiens; Sp5-Luc reporter, SW480 cells, 36 to 48 hours
Lab note: anything with EC50 below 0.06 µM is marked label 1; values at 0.06 µM or higher are marked label 0.

{"columns": ["mol_smiles", "label_class"],
 "data": [
  ["O=C1CCc2cccc(c2)-c2cccc3[nH]c(nc23)-c2n[nH]c3ccc(nc23)-c2cncc(c2)N1", "label 0"],
  ["O=C1COc2cccc(c2)-c2cncc3[nH]c(nc23)-c2n[nH]c3ccc(cc23)-c2cncc(c2)N1", "label 0"],
  ["c1cc2cc(c1)-c1cccc3[nH]c(nc13)-c1n[nH]c3ccc(cc13)-c1cncc(c1)CNC2", "label 1"],
  ["O=C1CCc2cccc(c2)-c2cncc3[nH]c(nc23)-c2n[nH]c3ccc(cc23)-c2cncc(c2)N1", "label 1"],
  ["O=C1CCc2cccc(c2)-c2cccc3[nH]c(nc23)-c2n[nH]c3cnc(cc23)-c2cncc(c2)N1", "label 1"],
  ["O=C1CCc2cccc(c2)-c2nccc3[nH]c(nc23)-c2n[nH]c3ccc(cc23)-c2cncc(c2)N1", "label 1"],
  ["CN1Cc2cncc(c2)-c2ccc3[nH]nc(c3c2)-c2nc3c(cccc3[nH]2)-c2cccc(c2)C1", "label 1"],
  ["CN1CCCCN(C)c2nccc3[nH]c(nc23)-c2n[nH]c3ccc(cc23)-c2cncc(c2)C1", "label 0"],
  ["CN1CCCn2cc(nn2)-c2cncc3[nH]c(nc23)-c2n[nH]c3ccc(cc23)-c2cncc(c2)C1", "label 0"],
  ["CN1Cc2cccc(c2)-c2cccc3[nH]c(nc23)-c2n[nH]c3ccc(cc23)-c2cnn(C)c2C1", "label 0"],
  ["c1cc2cc(c1)-c1cccc3[nH]c(nc13)-c1n[nH]c3ccc(cc13)-c1cncc(c1)OCCC2", "label 0"],
  ["c1cc2cc(c1)-c1cccc3[nH]c(nc13)-c1n[nH]c3ccc(cc13)-c1cncc(n1)NCCO2", "label 1"],
  ["O=C1CCc2cccc(c2)-c2cccc3[nH]c(nc23)-c2n[nH]c3ncc(cc23)-c2cncc(c2)N1", "label 0"],
  ["O=C1CCc2cccc(c2)-c2cncc(c2)NC(=O)c2n[nH]c3ccc(cc23)-c2cncc(c2)CN1", "label 0"],
  ["c1cc2cc(c1)-c1cncc3[nH]c(nc13)-c1n[nH]c3ccc(cc13)-c1cncc(c1)CNC2", "label 1"],
  ["O=C1CCCc2cccc(c2)-c2cccc3[nH]c(nc23)-c2n[nH]c3ccc(cc23)-c2cncc(c2)N1", "label 1"],
  ["O=C1CCc2cccc(c2)-c2cccc3[nH]c(nc23)-c2n[nH]c3ccc(cc23)-c2cncc(c2)N1", "label 1"],
  ["O=C1CCc2cccc(c2)-c2ccnc3[nH]c(nc23)-c2n[nH]c3ccc(cc23)-c2cncc(c2)N1", "label 0"],
  ["O=C1NC2CCC(CC2)NCc2cncc(c2)-c2ccc3[nH]nc(c3c2)-c2nc3c1cccc3[nH]2", "label 0"]
]}
